Experiment: Compound was tested for antiproliferative effect against primary endothelial cells from pork aorta(ECPA) with first-phase IC50 of 0.1 nM
Settings: Sus scrofa, Endothelial cell

[
  {
    "compound": "CO[C@@H]1[C@H](OC(=O)/C=C/C=C/C=C/C=C/C(=O)O)CC[C@]2(CO2)[C@H]1[C@@]1(C)O[C@@H]1CC=C(C)C [FUMAGILLIN]",
    "unit annotation": "µM",
    "IC50": 100
  }
]
